The origin of these recorded values is patent US7741348B2.

test: Cytotoxicity to HepG2.2.15 cells (MTT method); format: cell-based; conditions: human, HepG2.2.15 cells (HBV-transgenic human hepatoma cells), 50% death concentration, eighth day
Readout kind: CC50

CCOC(=O)c1nc(-c2cc3ccccc3s2)oc1CC(C)C    > 100 µM

Given the compound CCOC(=O)c1nc(-c2cccs2)oc1CC(C)C , what is its reported CC50?
> 100 µM

Given the compound CC(C)Cc1cnc(-c2nccs2)o1 , what is its reported CC50?
> 100 µM

----------
Each entry below carries its reported CC50.
assay: Cytotoxicity to HepG2.2.15 cells (MTT method); format: cell-based; settings: human, HepG2.2.15 cells (HBV-transgenic human hepatoma cells), 50% death concentration, eighth day

Some entries whose results are on file:
CCOC(=O)c1nc(-c2ccc(C)s2)sc1CC(C)C    > 100 µM
c1ccc(-c2cnc(-c3cccs3)o2)cc1    > 100 µM

Given the compound CCOC(=O)c1nc(-c2nccs2)[nH]c1C1CCC1 , what is its reported CC50?
> 100 µM

Given the compound CCOc1cnc(-c2oc(-c3cccs3)nc2C(=O)c2ccccc2)o1 , what is its reported CC50?
> 33.3 µM

Given the compound CCOC(=O)c1nc(-c2nccs2)oc1C1CCCCC1 , what is its reported CC50?
> 100 µM

Given the compound CCOC(=O)c1nc(-c2cc3ccccc3s2)sc1CC(C)C , what is its reported CC50?
> 88.1 µM
